experimental_system: BRAF-HDAC Complex 80 (BHC80)-PHD finger (UniProt Q96BD5 486-543)
Sequence (Q96BD5 486-543, one chain of several): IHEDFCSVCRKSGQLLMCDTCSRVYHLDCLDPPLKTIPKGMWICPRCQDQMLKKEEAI
test_description: ITC
Non-standard residues stand in square brackets, D forms with d. No end group written: not given here. Arg(Me2s) = CN=C(NC)NCCC[C@H](N)C(=O)O
measurement_name: Kd
# output: number + unit

INPUT: Can you share its Kd? I mean this binder: A[Arg(Me2s)]TKQTARKSTG [H3R2me2s- modified peptide]
OUTPUT: 57.2 µM
